# System: SF-268
# experiment-summary: Growth inhibition of human SF268 cells after 48 hrs by sulforhodamine B assay
# Type: functional
# applied-conditions: SF-268, 48 h
Measured TGI of individual entries
parameter: TGI (µM)

chemical_string=COc1cc(C)cc(-c2c(-c3ccnc(-c4ccc(N(C)C)cc4)c3)cnn2CC#N)c1 parameter=TGI qualifier=> number=100
chemical_string=COc1cc(C)cc(-c2nn(CC#N)cc2-c2ccnc(-c3ccc(N(C)C)cc3)c2)c1 parameter=TGI qualifier== number=8.9
chemical_string=COc1cc(C)cc(-c2nn(CC#N)cc2-c2ccc(-c3cccc(C(C)=O)c3)nc2)c1 parameter=TGI qualifier== number=81.4
chemical_string=Cc1cc(O)cc(-c2nn(CC#N)cc2-c2ccnc(-c3ccc(N(C)C)cc3)c2)c1 parameter=TGI qualifier== number=16.9
chemical_string=COc1cc(C)cc(-c2c(-c3ccnc(-c4ccc(C(C)=O)cc4)c3)cnn2CC#N)c1 parameter=TGI qualifier=> number=100
chemical_string=Cc1cc(O)cc(-c2nn(CC#N)cc2-c2ccnc(-c3ccc(Oc4ccccc4)cc3)c2)c1 parameter=TGI qualifier== number=15.5

====

Measured growth at 0.1 µM of individual entries
# Tested on: SN12C
# experiment-summary: Cytotoxicity against human SN12C cells assessed as cell growth at 100 nM after 48 hrs by sulforhodamine B assay
# Type: functional
# applied-conditions: read-out: Activity
parameter: growth at 0.1 µM

chemical_string=COc1cc(C)cc(-c2c(-c3ccnc(-c4ccc(C(C)=O)cc4)c3)cnn2CC#N)c1 result=92%
chemical_string=COc1cc(C)cc(-c2c(-c3ccnc(-c4ccc(N(C)C)cc4)c3)cnn2CC#N)c1 result=28%
chemical_string=COc1cc(C)cc(-c2nn(CC#N)cc2-c2ccnc(-c3ccc(N(C)C)cc3)c2)c1 result=44%
chemical_string=COc1cc(C)cc(-c2nn(CC#N)cc2-c2ccc(-c3cccc(C(C)=O)c3)nc2)c1 result=91%
chemical_string=Cc1cc(O)cc(-c2nn(CC#N)cc2-c2ccnc(-c3ccc(Oc4ccccc4)cc3)c2)c1 result=86%
chemical_string=Cc1cc(O)cc(-c2nn(CC#N)cc2-c2ccnc(-c3ccc(N(C)C)cc3)c2)c1 result=91%

====

# System: U-251
# experiment-summary: Cytotoxicity against human U251 cells assessed as cell growth at 10 uM after 48 hrs by sulforhodamine B assay
# Type: functional
# applied-conditions: U-251, 48 h, read-out: Activity
parameter: growth at 10 µM (%)

chemical_string=COc1cc(C)cc(-c2nn(CC#N)cc2-c2ccnc(-c3ccc(N(C)C)cc3)c2)c1 value_units=% number=-32
chemical_string=COc1cc(C)cc(-c2c(-c3ccnc(-c4ccc(C(C)=O)cc4)c3)cnn2CC#N)c1 value_units=% number=13
chemical_string=COc1cc(C)cc(-c2c(-c3ccnc(-c4ccc(N(C)C)cc4)c3)cnn2CC#N)c1 value_units=% number=6
chemical_string=Cc1cc(O)cc(-c2nn(CC#N)cc2-c2ccnc(-c3ccc(N(C)C)cc3)c2)c1 value_units=% number=-66
chemical_string=Cc1cc(O)cc(-c2nn(CC#N)cc2-c2ccnc(-c3ccc(Oc4ccccc4)cc3)c2)c1 value_units=% number=-98
chemical_string=COc1cc(C)cc(-c2nn(CC#N)cc2-c2ccc(-c3cccc(C(C)=O)c3)nc2)c1 value_units=% number=-37

====

# Tested on: BT-549
# experiment-summary: Cytotoxicity against human BT549 cells assessed as cell growth at 10 uM
# Type: functional
# applied-conditions: read-out: Activity
Measured growth at 10 µM of individual entries
parameter: growth at 10 µM

chemical_string=Cc1cc(O)cc(-c2nn(CC#N)cc2-c2ccnc(-c3ccc(N(C)C)cc3)c2)c1 parameter="growth at 10 µM" result=31.8%
chemical_string=COc1cc(C)cc(-c2nn(CC#N)cc2-c2ccnc(-c3ccc(C#N)cc3)c2)c1 parameter="growth at 10 µM" result=99.3%
chemical_string=COc1cc(C)cc(-c2nn(CC#N)cc2-c2ccnc(-c3cccc(NC(C)=O)c3)c2)c1 parameter="growth at 10 µM" result=79.1%
chemical_string=COc1cc(C)cc(-c2nn(CC#N)cc2-c2ccnc(-c3ccc(Oc4ccccc4)cc3)c2)c1 parameter="growth at 10 µM" result=96.3%

====

# System: UO-31
# experiment-summary: Cytotoxicity against human UO31 cells assessed as cell growth at 1 uM after 48 hrs by sulforhodamine B assay
# Assay type: functional
# applied-conditions: UO-31, 48 h, read-out: Activity
Measured growth at 1 µM of individual entries
parameter: growth at 1 µM (%)

chemical_string=Cc1cc(O)cc(-c2nn(CC#N)cc2-c2ccnc(-c3ccc(Oc4ccccc4)cc3)c2)c1 number=19
chemical_string=COc1cc(C)cc(-c2nn(CC#N)cc2-c2ccnc(-c3ccc(N(C)C)cc3)c2)c1 number=18
chemical_string=Cc1cc(O)cc(-c2nn(CC#N)cc2-c2ccnc(-c3ccc(N(C)C)cc3)c2)c1 number=19
chemical_string=COc1cc(C)cc(-c2nn(CC#N)cc2-c2ccc(-c3cccc(C(C)=O)c3)nc2)c1 number=21
chemical_string=COc1cc(C)cc(-c2c(-c3ccnc(-c4ccc(C(C)=O)cc4)c3)cnn2CC#N)c1 number=11
chemical_string=COc1cc(C)cc(-c2c(-c3ccnc(-c4ccc(N(C)C)cc4)c3)cnn2CC#N)c1 number=12

====

# System: SR
# experiment-summary: Growth inhibition of human SR cells after 48 hrs by sulforhodamine B assay
# Assay type: functional
parameter: TGI

chemical_string=COc1cc(C)cc(-c2nn(CC#N)cc2-c2ccc(-c3cccc(C(C)=O)c3)nc2)c1 result="> 100 µM"
chemical_string=Cc1cc(O)cc(-c2nn(CC#N)cc2-c2ccnc(-c3ccc(Oc4ccccc4)cc3)c2)c1 result="37.2 µM"
chemical_string=COc1cc(C)cc(-c2nn(CC#N)cc2-c2ccnc(-c3ccc(N(C)C)cc3)c2)c1 result="> 10 µM"
chemical_string=Cc1cc(O)cc(-c2nn(CC#N)cc2-c2ccnc(-c3ccc(N(C)C)cc3)c2)c1 result="> 100 µM"
chemical_string=COc1cc(C)cc(-c2c(-c3ccnc(-c4ccc(C(C)=O)cc4)c3)cnn2CC#N)c1 result="> 100 µM"

====

Measured growth at 1 µM of individual entries
# Tested on: SK-MEL-5
# experiment-summary: Cytotoxicity against human SK-MEL-5 cells assessed as cell growth at 1 uM after 48 hrs by sulforhodamine B assay
# Format: functional
# applied-conditions: SK-MEL-5, 48 h, read-out: Activity
parameter: growth at 1 µM (%)

chemical_string=COc1cc(C)cc(-c2nn(CC#N)cc2-c2ccc(-c3cccc(C(C)=O)c3)nc2)c1 number=-13
chemical_string=COc1cc(C)cc(-c2c(-c3ccnc(-c4ccc(C(C)=O)cc4)c3)cnn2CC#N)c1 number=-37
chemical_string=COc1cc(C)cc(-c2nn(CC#N)cc2-c2ccnc(-c3ccc(N(C)C)cc3)c2)c1 number=-40
chemical_string=Cc1cc(O)cc(-c2nn(CC#N)cc2-c2ccnc(-c3ccc(N(C)C)cc3)c2)c1 number=-26
chemical_string=COc1cc(C)cc(-c2c(-c3ccnc(-c4ccc(N(C)C)cc4)c3)cnn2CC#N)c1 number=-31

====

Measured TGI of individual entries
# System: RXF 393
# experiment-summary: Growth inhibition of human RXF393 cells after 48 hrs by sulforhodamine B assay
# Format: functional
# applied-conditions: RXF 393, 48 h
parameter: TGI (µM)

chemical_string=COc1cc(C)cc(-c2c(-c3ccnc(-c4ccc(C(C)=O)cc4)c3)cnn2CC#N)c1 parameter=TGI number=6.02
chemical_string=COc1cc(C)cc(-c2nn(CC#N)cc2-c2ccc(-c3cccc(C(C)=O)c3)nc2)c1 parameter=TGI number=3.59
chemical_string=Cc1cc(O)cc(-c2nn(CC#N)cc2-c2ccnc(-c3ccc(N(C)C)cc3)c2)c1 parameter=TGI number=61.4
chemical_string=COc1cc(C)cc(-c2nn(CC#N)cc2-c2ccnc(-c3ccc(N(C)C)cc3)c2)c1 parameter=TGI number=0.633
chemical_string=Cc1cc(O)cc(-c2nn(CC#N)cc2-c2ccnc(-c3ccc(Oc4ccccc4)cc3)c2)c1 parameter=TGI number=4.31

====

Measured growth at 10 µM of individual entries
# System: TK-10
# experiment-summary: Cytotoxicity against human TK10 cells assessed as cell growth at 10 uM
# Assay type: functional
# applied-conditions: read-out: Activity
parameter: growth at 10 µM (%)

chemical_string=COc1cc(C)cc(-c2nn(CC#N)cc2-c2ccnc(-c3ccc(Oc4ccccc4)cc3)c2)c1 assayed_system=TK-10 value_units=% number=88.6
chemical_string=COc1cc(C)cc(-c2nn(CC#N)cc2-c2ccnc(-c3ccc(N(C)C)cc3)c2)c1 assayed_system=TK-10 value_units=% number=34.7
chemical_string=COc1cc(C)cc(-c2nn(CC#N)cc2-c2ccnc(-c3ccc(C(C)=O)cc3)c2)c1 assayed_system=TK-10 value_units=% number=95.2
chemical_string=COc1cc(C)cc(-c2c(-c3ccnc(-c4ccc(C(C)=O)cc4)c3)cnn2CC#N)c1 assayed_system=TK-10 value_units=% number=72.6
chemical_string=Cc1cc(O)cc(-c2nn(CC#N)cc2-c2ccnc(-c3ccc(Oc4ccccc4)cc3)c2)c1 assayed_system=TK-10 value_units=% number=47.2
chemical_string=COc1cc(C)cc(-c2nn(CC#N)cc2-c2ccnc(-c3cccc(NC(C)=O)c3)c2)c1 assayed_system=TK-10 value_units=% number=87.1
chemical_string=COc1cc(C)cc(-c2nn(CC#N)cc2-c2ccc(-c3cccc(C(C)=O)c3)nc2)c1 assayed_system=TK-10 value_units=% number=27.3
chemical_string=COc1cc(C)cc(-c2c(-c3ccnc(-c4ccc(N(C)C)cc4)c3)cnn2CC#N)c1 assayed_system=TK-10 value_units=% number=36.6
chemical_string=Cc1cc(O)cc(-c2nn(CC#N)cc2-c2ccnc(-c3ccc(C#N)cc3)c2)c1 assayed_system=TK-10 value_units=% number=78.4
